# Target Entity: plasmin (Homo sapiens, UniProt P00747)
# Sequence (P00747 581-810 limits assumed): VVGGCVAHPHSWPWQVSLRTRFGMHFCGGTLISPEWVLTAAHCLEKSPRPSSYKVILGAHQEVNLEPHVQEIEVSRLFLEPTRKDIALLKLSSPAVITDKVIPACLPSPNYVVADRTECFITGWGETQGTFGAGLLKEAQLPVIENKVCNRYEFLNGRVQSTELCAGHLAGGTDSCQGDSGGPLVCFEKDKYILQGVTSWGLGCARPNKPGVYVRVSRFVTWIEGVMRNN
# Sequence (P00747 97-580 partner limits assumed): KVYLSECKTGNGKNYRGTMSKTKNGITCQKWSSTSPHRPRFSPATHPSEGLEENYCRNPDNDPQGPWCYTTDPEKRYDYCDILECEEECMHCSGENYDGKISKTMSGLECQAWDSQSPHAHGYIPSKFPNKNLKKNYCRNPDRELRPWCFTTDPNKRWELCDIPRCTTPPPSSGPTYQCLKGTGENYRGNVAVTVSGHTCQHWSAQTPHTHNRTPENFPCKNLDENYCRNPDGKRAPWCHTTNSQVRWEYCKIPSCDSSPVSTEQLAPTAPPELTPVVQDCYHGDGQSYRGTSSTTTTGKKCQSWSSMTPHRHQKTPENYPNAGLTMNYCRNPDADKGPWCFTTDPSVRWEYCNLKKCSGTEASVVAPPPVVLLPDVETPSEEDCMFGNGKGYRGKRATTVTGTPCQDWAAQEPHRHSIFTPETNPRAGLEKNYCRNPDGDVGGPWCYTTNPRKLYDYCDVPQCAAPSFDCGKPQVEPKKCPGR
# Protocol: Determination of inhibition constants for plasmin
# Format: biochemical
# Parameters: purchased Calbiochem
# Conditions: summary of results; read-out: Ki value of the plasmin inhibition
pKi: −log10 of the molar value.
Endpoint Label: pKi

For plasmin (Homo sapiens, UniProt P00747), provide pKi of N=C(N)c1ccc(CNC(=O)[C@H](CCc2ccncc2)NC(=O)[C@H](NS(=O)(=O)Cc2ccccc2)C2Cc3ccccc3C2)cc1 please. > 8.30

For plasmin (Homo sapiens, UniProt P00747), provide pKi of CC(C)(C)c1ccc(C[C@@H](NS(=O)(=O)Cc2ccccc2)C(=O)N[C@@H](Cc2cccc(CN)c2)C(=O)NCc2ccc(C(=N)N)cc2)cc1 please. > 8.30

For plasmin (Homo sapiens, UniProt P00747), provide pKi of N=C(N)c1ccc(CC[C@H](NC(=O)[C@@H](CC2CCCCC2)NS(=O)(=O)Cc2ccccc2)C(=O)NCc2ccc(C(=N)N)cc2)cc1 please. > 8.30
